biological target: T1, human Galectin-3 (Gal3), full-length recombinant (human, UniProt P17931 2-250); assay: blocking ELISA, Gal3 coated, TREM2-His
T1 construct: treated here as one molecule; also called hGAL3; hGal3
T1 sequence (P17931 2-250 limits assumed): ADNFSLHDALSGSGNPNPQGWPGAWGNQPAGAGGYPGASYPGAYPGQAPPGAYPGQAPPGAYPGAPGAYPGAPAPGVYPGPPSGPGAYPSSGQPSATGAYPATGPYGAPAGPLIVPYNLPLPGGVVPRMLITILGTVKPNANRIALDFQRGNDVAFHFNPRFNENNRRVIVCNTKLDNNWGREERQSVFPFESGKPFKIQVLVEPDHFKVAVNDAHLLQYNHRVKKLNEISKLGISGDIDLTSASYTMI
Quick reference: % blocking of Gal3-TREM2 binding of the listed items.

F846C.1F5 (antibody, human IgG4 S228P, kappa, V domains shown, also called 846.1F5) VH: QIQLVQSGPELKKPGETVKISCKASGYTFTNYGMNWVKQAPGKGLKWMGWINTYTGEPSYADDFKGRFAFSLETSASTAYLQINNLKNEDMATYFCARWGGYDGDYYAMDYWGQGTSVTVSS VL: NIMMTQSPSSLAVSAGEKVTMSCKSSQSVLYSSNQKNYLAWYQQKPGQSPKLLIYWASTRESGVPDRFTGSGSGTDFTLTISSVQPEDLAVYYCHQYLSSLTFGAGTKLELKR : > 90%
15G7.2A7 (antibody, human IgG4 S228P, kappa, V domains shown, also called 15FG7.2A7) VH: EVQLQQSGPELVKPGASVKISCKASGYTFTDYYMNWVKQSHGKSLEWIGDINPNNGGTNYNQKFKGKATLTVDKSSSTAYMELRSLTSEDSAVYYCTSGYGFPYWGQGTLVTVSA VL: DIQMNQSPSSLSASLGDTISITCRASQNINIWLSWYQQKPGNIPQLLIYKASNLHTGVPSRFSGSGSGTDFTLTISSLQPEDIATYYCLQGQSYPLTFGAGTKLVMKR : > 90%
TB006 (antibody, V domains shown, Humanized variant derived from murine 4A11.2B5; also called 4A11.H3L1; IMT006) VH: QVQLVQSGAEVKKPGASVKVSCKASGYSFTNYYMHWVRQAPGQRLEWMGWIYPGSGNTNYNEKFQGRVTITADTSASTAYMELSSLRSEDTAVYYCSTAPGGFDVWGQGTTVTVSS VL: DIVMTQTPLSLSVTPGQPASISCKSSKSLLHSDGITYLYWYLQKPGQSPQLLIYRMSNLASGVPDRFSGSGSGTDFTLKISRVEAEDVGVYYCAQMLEFPLTFGQGTKLEIKR : > 90%

I'd like to know its % blocking of Gal3-TREM2 binding. The binder in question is F847C.11B1 (antibody, human IgG4 S228P, kappa, V domains shown, also called 847.11B1) VH: EVQLQQSGPELVKPGASVKISCKASGNTFTDHNMHWVKQSHGKSLEWIGYIYPYNGGTGYNQKFKSKATLTVDNSSSTVYMELRSLTSEDSAVYYCARGEYDYLAWFAYWGQGTLVTVSA VL: EIVLTQSPASLSVTTGEKVTIRCITSIDIDDDMNWYQQKPGEPPKLLISEGNTLRPGVPSRFSSSGYGTDFVFTIENTLSEDVADYYCLQSDNKPLTFGAGTKLELKR
< 47%

Further, for F846TC.14E4 (antibody, human IgG4 S228P, kappa, V domains shown, also called 846T.14E4) VH: QVTLKESGPGILQPSQTLSLTCSFSGFSLSTSGMGVGWIRQPSGKGLEWLAHIWWDDDKYYNTALKSGLTISKDASKNQVFLKIASMDTADTATYYCARNLYDGSYGYYAMDYWGQGTSVTVSS VL: DIVMTQAAFSNPVTLGTSASISCRSSKSLLHTNGITFLYWYLQKPGQSPQPLIYQMSNLASGVPDRFSSSGSGTDFTLRISRVEAEDVGVYYCAQNLELPWTFGGGTKLEINR ?
> 90%

And then 19B5.2E6 (antibody, mouse IgG2a, V domains shown) VH: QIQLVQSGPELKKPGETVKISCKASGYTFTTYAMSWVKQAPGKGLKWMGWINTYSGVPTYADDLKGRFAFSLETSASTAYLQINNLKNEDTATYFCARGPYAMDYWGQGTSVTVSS VL: DIQMTQTTSSLSASLGDRVTISCSASQGINNYLNWYQQKPDGTVKLLIYYASSLHSGVPSRFSGSGSGTDYSLTISNLEPEDIATYYCQQYSQVPYTFGSGTKLEIKR , what is it?
> 90%
